- STUDY TARGET: T1, Recombinant human IL-2 (human, UniProt P60568 21-153)
- T1 construct: also called rhIL-2; hIL-2
- PROTOCOL TEXT: SPR (Biacore 4000), IgG captured on anti-human IgG Fc, rhIL-2 0.11-10 nM
Provide the recorded kon for the entries that follow.
Give the quantity in M⁻¹ s⁻¹, number only.

Task: Give reported kon value for XPA.92.099 (antibody, V domains shown, Tested as purified full-length human IgG; also called mAb99; clone 99) VH: QVQLVESGGGLVKPGRSLRLSCAASGFTFNRYAMSWVRQAPGKGLEWVAMISFDGGNQYYTDSVSGRFTISRDNSKTTLFLQMDSLRTEDTAVYYCVRSPAGDWVAYFDYWGQGTLVTVSS VL: DIQMTQSPSSLSASIGDRVTIPCQASEDISNHLSWYQQKPGKAPKPLIFDASDLETGVPSRFSGSGSGTDFALTISSLRPDDFATYYCHQYHDYPSYTFGHGTKLEIKR
Result: 5.5e+06

Task: State its kon: XPA.92.042 (antibody, V domains shown, Tested as purified full-length human IgG) VH: EVQLVQSGTEVKKAGDSLKISCKGSGYNFDTYWIGWVRQMPGRGLEWMGTIYPADSDTRYSPSFQGQVTMSADKSISTAYLQWGSLRASDTAMYYCARFSSSAYDIWGQGTMVTVSS VL: SYELTQPPSVSVSPGQTARITCSGDALPRKFAYWYQQKSGQAPVLVIYQDTKRPSGIPERFSGSSSGTTVTLTISDVQAEDDADYYCQSADRSDSYVFGAGTKLTVLG
Result: 8.9e+06

Task: Look up and report measured kon for this entry: XPA.92.019 (antibody, V domains shown, Tested as purified full-length human IgG; also called mAb19) VH: EVQLVESGGGLVQPGRSLRLSCAASGFTFSYYGMHWVRQAPGKGLEWVADISNDGSNKYYADSVKGRFTISRDNSKTTLYLQMNSLRPEDTAVYYCATPYYDSSGLDYWGQGTLVTVSS VL: SYELTQPPSVSVSPGQTARITCSGDALPKRFAYWYQQKAGQAPVLVIYEDNKRPSGIPETLSGSSSGTTATLTISGAQEEDEADYYCYSTDNTGGLWVFGGGTKLTVLG
Result: 3.7e+06
